- target_or_system: MMP-13 (Homo sapiens)
- Construct: catalytic domain (^104Tyr˜^267Gly) was amplified with RT-PCR; His-tag; enterokinase digestion-site; made in house
- test_method_notes: Assay for inhibitory activities on MMPs (fluorogenic MOCAc peptide substrate): MMP-13
- Type: biochemical
- experimental_setup: Table 40
outcome_measure: IC50 (µM)

1. CCCCc1ccc(-c2cc(-c3ccc(S(=O)(=O)N[C@@H](C(=O)O)C(C)C)cc3)no2)cc1
2. CCCc1ccc(-c2cc(-c3ccc(S(=O)(=O)N[C@@H](C(=O)O)C(C)C)cc3)no2)cc1
3. CSc1ccc(-c2cc(-c3ccc(S(=O)(=O)N[C@@H](C(=O)O)C(C)C)cc3)no2)cc1
4. CCc1ccc(-c2cc(-c3ccc(S(=O)(=O)N[C@@H](C(=O)O)C(C)C)cc3)on2)cc1
# ascending order, key=IC50 Write out the labels following the order that was asked for.
2, 3, 1, 4
(2: 0.00015 µM, 3: 0.000282 µM, 1: 0.000578 µM, 4: 0.000943 µM)

Origin of the recorded values: patent US7825146B2
